Measured pIC50 accompanies every entry in the list below.
- Tested on: H3K9me2 in HCT116 cells
- experimental_details: HCT116 H3K9me2 in-cell western assay
- Assay type: cell-based
- details: Homo sapiens, HCT-116, 72 h, HCT116 cells, 72 hours incubation; read-out: H3K9me2 ICW IC50
pIC50: −log10 of the molar value.

molecule	pIC50
CNc1cc(Nc2cc3c(c(C4=CCN(C)CCC4)c2F)OCCC3)nc(C)c1F	6.30 to 7.00
CNc1cc(C)nc(Nc2cc3c(c(C4=CCN(C)CCC4)c2F)OCO3)n1	> 7.00
[2H]C([2H])([2H])CNc1nc(Nc2cc3c(c(C4=CCNCCC4)c2F)OCC3)nc(C)c1F	6.30 to 7.00
[2H]C([2H])([2H])N1CC=C(c2cc(Nc3nc(C)cc(NC)n3)cc3c2OCC3)CCC1	> 7.00
[2H]C([2H])([2H])CNc1cc(C)nc(Nc2cc3c(c(C4=CCN(C)CCC4)c2)OCO3)n1	6.30 to 7.00
CNc1cc(C)nc(Nc2cc3c(c(C4=CCNCC(O)C4)c2Cl)OCC3)n1 (single isomer, unassigned)	> 7.00
Cc1cc(NC2CCC2)nc(Nc2cc3c(c(C4=CCNCCC4)c2)OCC3)n1	6.30 to 7.00
CNc1nc(Nc2cc3c(c(OCCCN4CCCC4)c2)OCC3)nc(C)c1F	< 5.70
CNc1cc(C)nc(Nc2cc(OCCCN3CCCC3)c3c(c2)N(Cc2ccccc2)CCO3)n1	5.70 to 6.30
CNc1cc(C)nc(Nc2cc3c(c(C4CCCNCC4)c2)OCCC3)n1 (stereo not shown)	6.30 to 7.00
